target: protein kinases (human kinome) (Homo sapiens); assay type: cell-based; conditions: AAK1 (Q2M218-1); experiment wp016; down
READOUT_TYPE: logFC AAK1
Answer with a bare number; do not write a unit.

Here is how some compounds turned out for logFC AAK1.
CC(C)S(=O)(=O)c1ccccc1Nc1nc(Nc2ccc(N3CCN(CCOCCOCCOCCNC(=O)CNc4cccc5c4C(=O)N(C4CCC(=O)NC4=O)C5=O)CC3)cc2)ncc1Cl (stereo not drawn) ... −0.7307
CC(C)S(=O)(=O)c1ccccc1Nc1nc(Nc2ccc(N3CCN(CCOCCNC(=O)CNc4cccc5c4C(=O)N(C4CCC(=O)NC4=O)C5=O)CC3)cc2)ncc1Cl (stereo not drawn) ... −1.364
CC(C)S(=O)(=O)c1ccccc1Nc1nc(Nc2ccc(N3CCN(CCOCCOCCOCCNC(=O)CNc4ccc5c(c4)C(=O)N(C4CCC(=O)NC4=O)C5=O)CC3)cc2)ncc1Cl (stereo not drawn) ... −1.219
CC(C)S(=O)(=O)c1ccccc1Nc1nc(Nc2ccc(N3CCN(CCOCCOCCNC(=O)CNc4ccc5c(c4)C(=O)N(C4CCC(=O)NC4=O)C5=O)CC3)cc2)ncc1Cl (stereo not drawn) ... −1.778

CC(C)S(=O)(=O)c1ccccc1Nc1nc(Nc2ccc(N3CCN(CCOCCOCCNC(=O)CNc4cccc5c4C(=O)N(C4CCC(=O)NC4=O)C5=O)CC3)cc2)ncc1Cl (stereo not drawn) yielded logFC AAK1 of −1.338

CC(C)S(=O)(=O)c1ccccc1Nc1nc(Nc2ccc(N3CCN(CCOCCNC(=O)CNc4ccc5c(c4)C(=O)N(C4CCC(=O)NC4=O)C5=O)CC3)cc2)ncc1Cl (stereo not drawn) yielded logFC AAK1 of −1.588

----------
Biological target: protein kinases (human kinome) (Homo sapiens)
Type: cell-based
Settings: FER P16591-1; experiment wp016
Source text: Although development of targeted protein degraders requires a POI binder, among already-liganded proteins such as kinases, it was hypothesized that different targets would have a different propensity for current approaches to degrader-mediated destruction, which was termed ‘degradability’. […]
Each entry below carries its reported logFC of FER.
Answer with a bare number; do not write a unit.

CC(C)S(=O)(=O)c1ccccc1Nc1nc(Nc2ccc(N3CCN(CCOCCNC(=O)CNc4cccc5c4C(=O)N(C4CCC(=O)NC4=O)C5=O)CC3)cc2)ncc1Cl (stereo not drawn) ... −2.646
CC(C)S(=O)(=O)c1ccccc1Nc1nc(Nc2ccc(N3CCN(CCOCCOCCNC(=O)CNc4cccc5c4C(=O)N(C4CCC(=O)NC4=O)C5=O)CC3)cc2)ncc1Cl (stereo not drawn) ... −2.727

CC(C)S(=O)(=O)c1ccccc1Nc1nc(Nc2ccc(N3CCN(CCOCCOCCNC(=O)CNc4ccc5c(c4)C(=O)N(C4CCC(=O)NC4=O)C5=O)CC3)cc2)ncc1Cl (stereo not drawn) yielded logFC of FER of −2.467

----------
molecular target: UniProtKB P11802; type: cell-based; settings: experiment wp084
Sequence (P11802 whole entry): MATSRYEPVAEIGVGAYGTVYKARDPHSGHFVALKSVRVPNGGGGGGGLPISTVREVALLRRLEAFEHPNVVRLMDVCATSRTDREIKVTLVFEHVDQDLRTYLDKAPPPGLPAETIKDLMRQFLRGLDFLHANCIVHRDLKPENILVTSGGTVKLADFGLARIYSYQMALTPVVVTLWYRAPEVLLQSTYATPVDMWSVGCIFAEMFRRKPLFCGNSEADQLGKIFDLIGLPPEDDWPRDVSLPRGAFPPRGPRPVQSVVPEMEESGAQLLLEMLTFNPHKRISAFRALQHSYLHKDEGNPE
Each entry below carries its reported logFC CDK4 (P11802).
Answer with a bare number; do not write a unit.

Here is how some molecules turned out for logFC CDK4 (P11802).
CC(=O)c1c(C)c2cnc(Nc3ccc(N4CCN(CCCCNC(=O)COc5cccc6c5C(=O)N(C5CCC(=O)NC5=O)C6=O)CC4)cn3)nc2n(C2CCCC2)c1=O (stereo not shown) ... −2.162
CC(=O)c1c(C)c2cnc(Nc3ccc(N4CCN(CCOCCOCCOCCNC(=O)COc5cccc6c5C(=O)N(C5CCC(=O)NC5=O)C6=O)CC4)cn3)nc2n(C2CCCC2)c1=O (stereo not shown) ... −0.9496
CC(=O)c1c(C)c2cnc(Nc3ccc(N4CCN(CCCCNC(=O)CNc5cccc6c5C(=O)N(C5CCC(=O)NC5=O)C6=O)CC4)cn3)nc2n(C2CCCC2)c1=O (stereo not shown) ... −1.8

Consider now this further molecule.
CN(C)C(=O)c1cc2cnc(Nc3ccc(N4CCN(CCCCNC(=O)COc5cccc6c5C(=O)N(C5CCC(=O)NC5=O)C6=O)CC4)cn3)nc2n1C1CCCC1 (stereo not shown) yielded logFC CDK4 (P11802) of −0.9046

----------
biological target: protein kinases (human kinome) (Homo sapiens, UniProt Q2M2I8); format: cell-based; settings: AAK1, accession Q2M218-1; experiment wp016; direction of change down
Sequence (Q2M2I8 whole entry): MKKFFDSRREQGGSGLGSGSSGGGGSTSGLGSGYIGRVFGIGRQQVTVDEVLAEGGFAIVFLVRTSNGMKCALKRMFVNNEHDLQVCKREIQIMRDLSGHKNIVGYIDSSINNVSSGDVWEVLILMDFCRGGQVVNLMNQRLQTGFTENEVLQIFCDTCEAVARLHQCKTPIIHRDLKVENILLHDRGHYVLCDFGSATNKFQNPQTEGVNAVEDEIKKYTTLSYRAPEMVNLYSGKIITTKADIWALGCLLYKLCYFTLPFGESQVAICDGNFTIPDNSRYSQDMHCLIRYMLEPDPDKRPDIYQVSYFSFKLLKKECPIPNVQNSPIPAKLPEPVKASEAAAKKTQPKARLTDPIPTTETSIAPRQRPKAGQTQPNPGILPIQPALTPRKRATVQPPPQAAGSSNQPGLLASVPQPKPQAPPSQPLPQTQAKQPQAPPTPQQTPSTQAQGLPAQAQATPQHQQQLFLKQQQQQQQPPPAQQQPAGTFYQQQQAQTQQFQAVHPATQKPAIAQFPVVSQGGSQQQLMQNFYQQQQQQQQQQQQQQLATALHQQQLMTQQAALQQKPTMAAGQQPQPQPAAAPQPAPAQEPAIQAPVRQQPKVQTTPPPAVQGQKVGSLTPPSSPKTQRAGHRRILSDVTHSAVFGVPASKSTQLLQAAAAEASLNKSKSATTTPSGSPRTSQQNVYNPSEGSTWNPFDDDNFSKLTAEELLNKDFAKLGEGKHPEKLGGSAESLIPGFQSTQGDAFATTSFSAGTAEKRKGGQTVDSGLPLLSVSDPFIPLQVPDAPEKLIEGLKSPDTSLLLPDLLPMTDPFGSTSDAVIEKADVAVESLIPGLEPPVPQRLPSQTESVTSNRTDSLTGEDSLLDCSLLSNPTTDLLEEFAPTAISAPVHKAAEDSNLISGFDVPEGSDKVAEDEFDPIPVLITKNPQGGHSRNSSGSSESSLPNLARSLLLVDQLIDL
READOUT_TYPE: logFC AAK1
Answer with a bare number; do not write a unit.

Here is how some molecules turned out for logFC AAK1.
CC(C)S(=O)(=O)c1ccccc1Nc1nc(Nc2ccc(N3CCN(CCOCCOCCNC(=O)CNc4cccc5c4C(=O)N(C4CCC(=O)NC4=O)C5=O)CC3)cc2)ncc1Cl (stereo not drawn) [TL12.186] ... −1.338
CC(C)S(=O)(=O)c1ccccc1Nc1nc(Nc2ccc(N3CCN(CCOCCNC(=O)CNc4ccc5c(c4)C(=O)N(C4CCC(=O)NC4=O)C5=O)CC3)cc2)ncc1Cl (stereo not drawn) [SK.3.93] ... −1.588
CC(C)S(=O)(=O)c1ccccc1Nc1nc(Nc2ccc(N3CCN(CCOCCOCCOCCNC(=O)CNc4ccc5c(c4)C(=O)N(C4CCC(=O)NC4=O)C5=O)CC3)cc2)ncc1Cl (stereo not drawn) [SK.3.89] ... −1.219
CC(C)S(=O)(=O)c1ccccc1Nc1nc(Nc2ccc(N3CCN(CCOCCOCCNC(=O)CNc4ccc5c(c4)C(=O)N(C4CCC(=O)NC4=O)C5=O)CC3)cc2)ncc1Cl (stereo not drawn) [LT2.49] ... −1.778
CC(C)S(=O)(=O)c1ccccc1Nc1nc(Nc2ccc(N3CCN(CCOCCOCCOCCNC(=O)CNc4cccc5c4C(=O)N(C4CCC(=O)NC4=O)C5=O)CC3)cc2)ncc1Cl (stereo not drawn) [SK.3.87] ... −0.7307

CC(C)S(=O)(=O)c1ccccc1Nc1nc(Nc2ccc(N3CCN(CCOCCNC(=O)CNc4cccc5c4C(=O)N(C4CCC(=O)NC4=O)C5=O)CC3)cc2)ncc1Cl (stereo not drawn) [SK.3.91] yielded logFC AAK1 of −1.364

----------
molecular target: protein kinases (human kinome) (Homo sapiens); format: cell-based; details: ULK1 (O75385) protein abundance, degrader vs DMSO; down
READOUT_TYPE: logFC
Answer with a bare number; do not write a unit.

Here is how some compounds turned out for logFC.
CC(C)S(=O)(=O)c1ccccc1Nc1nc(Nc2ccc(N3CCN(CCOCCOCCC(=O)NCCNc4cccc5c4CN(C4CCC(=O)NC4=O)C5=O)CC3)cc2)ncc1Cl (stereo not drawn) ... −1.877
CS(=O)(=O)Nc1cccc(-c2csc3cnc(Nc4ccc(N5CCN(CCOCCOCCOc6cccc7c6C(=O)N(C6CCC(=O)NC6=O)C7=O)CC5)cc4)nc23)c1 (stereo not drawn) ... −0.5583

Consider now this further compound.
Cc1ncsc1-c1ccc([C@H](C)NC(=O)[C@@H]2C[C@@H](O)CN2C(=O)[C@@H](NC(=O)CCCCCN2CCc3cc(Nc4ncc(C5CC5)c(NCCCNC(=O)C5CCC5)n4)ccc3C2)C(C)(C)C)cc1 yielded logFC of −0.4424

----------
target: protein kinases (human kinome) (Homo sapiens); type: cell-based; conditions: PTK2B (Q14289-1) protein abundance, degrader vs DMSO; down
The threshold is -3. Values of logFC beneath it are tagged criterion met; values meeting or exceeding it are tagged criterion not met.

Answered cases to consult:
CC(C)S(=O)(=O)c1ccccc1Nc1nc(Nc2ccc(N3CCN(CCOCCOCCNC(=O)CNc4ccc5c(c4)C(=O)N(C4CCC(=O)NC4=O)C5=O)CC3)cc2)ncc1Cl (centres unmarked) ... criterion met
CC(C)S(=O)(=O)c1ccccc1Nc1nc(Nc2ccc(N3CCN(CCOCCOCCNC(=O)CNc4cccc5c4C(=O)N(C4CCC(=O)NC4=O)C5=O)CC3)cc2)ncc1Cl (centres unmarked) ... criterion met

Ask | Please check: logFC for Cc1ccc(NC(=O)c2cccc(C(F)(F)F)c2)cc1N1Cc2cnc(Nc3ccc(N4CCN(CCCCCCOc5cccc6c5C(=O)N(C5CCC(=O)NC5=O)C6=O)CC4)nc3)nc2N(C)C1=O (centres unmarked) , strictly under -3 or not?
Reply | criterion not met

Ask | Please check: logFC for CC(C)S(=O)(=O)c1ccccc1Nc1nc(Nc2ccc(N3CCN(CCOCCNC(=O)CNc4ccc5c(c4)C(=O)N(C4CCC(=O)NC4=O)C5=O)CC3)cc2)ncc1Cl (centres unmarked) , strictly under -3 or not?
Reply | criterion met

----------
biological target: protein kinases (human kinome) (Homo sapiens, UniProt Q00535); assay type: cell-based; conditions: Accession Q00535; experiment wp016
Sequence (Q00535 whole entry): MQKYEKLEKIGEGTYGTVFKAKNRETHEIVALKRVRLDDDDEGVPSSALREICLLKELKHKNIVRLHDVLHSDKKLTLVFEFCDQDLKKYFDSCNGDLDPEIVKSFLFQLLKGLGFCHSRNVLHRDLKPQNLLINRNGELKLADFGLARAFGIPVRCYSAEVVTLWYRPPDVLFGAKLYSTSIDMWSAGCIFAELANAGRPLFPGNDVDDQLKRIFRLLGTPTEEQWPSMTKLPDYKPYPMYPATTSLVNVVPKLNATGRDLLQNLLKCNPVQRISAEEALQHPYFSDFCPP
READOUT_TYPE: logFC of CDK5
Answer with a bare number; do not write a unit.

Here is how some compounds turned out for logFC of CDK5.
CC(C)S(=O)(=O)c1ccccc1Nc1nc(Nc2ccc(N3CCN(CCOCCNC(=O)CNc4ccc5c(c4)C(=O)N(C4CCC(=O)NC4=O)C5=O)CC3)cc2)ncc1Cl (stereo not drawn) [SK.3.93] ... −0.9703
CC(C)S(=O)(=O)c1ccccc1Nc1nc(Nc2ccc(N3CCN(CCOCCOCCOCCNC(=O)CNc4cccc5c4C(=O)N(C4CCC(=O)NC4=O)C5=O)CC3)cc2)ncc1Cl (stereo not drawn) [SK.3.87] ... −0.5732

Consider now this further compound.
Tested on protein kinases (human kinome) (Homo sapiens, UniProt Q00535), the item CC(C)S(=O)(=O)c1ccccc1Nc1nc(Nc2ccc(N3CCN(CCOCCOCCNC(=O)CNc4ccc5c(c4)C(=O)N(C4CCC(=O)NC4=O)C5=O)CC3)cc2)ncc1Cl (stereo not drawn) [LT2.49] showed logFC of CDK5 equal to −0.8608
